Origin of values: PubChem BioAssay AID1159580

test: chemical genetic growth profiling, strain panel (AID 1159580);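 also: tested at 20 µM; growth read once vehicle control cultures reached saturation at 30 °C; lower values mean less growth of the strain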; conditions: S. cerevisiae deletion strains, growth OD, locus YPL240C, strain hsp82, hits give low values
Out of some 5,500 compounds screened, about 2,000 (36%) were called active. Roughly 18% stayed inconclusive and do not appear here. Some of the results follow.
Rule: measured normalized growth below 1 gets true; anything equal to or greater than 1 gets false.

Ask: Determine if C[C@@H]1CC[C@H]2C(C)(C)C3CC12CC[C@@]3(C)O (stereo not given in full) shows normalized growth strictly lower than 1.
Reply: true

Ask: Determine if Clc1ccc(COC(Cn2ccnc2)c2ccc(Cl)cc2Cl)cc1 (stereo not given) shows normalized growth strictly lower than 1.
Reply: true

Ask: Determine if COc1ccc2c(c1)OCC(Cc1ccc(OC)c(O)c1)C2=O (stereo not given) shows normalized growth strictly lower than 1.
Reply: true

Ask: Determine if Cc1ccc(C(=O)c2ccc(CC(=O)O)n2C)cc1 shows normalized growth strictly lower than 1.
Reply: false

Ask: Determine if Clc1ccc(CSC(Cn2ccnc2)c2ccc(Cl)cc2Cl)cc1 (stereo not given) shows normalized growth strictly lower than 1.
Reply: true

Ask: Determine if COc1c(C)c2c(c(O)c1C/C=C(\C)CCC(=O)O)C(=O)OC2 shows normalized growth strictly lower than 1.
Reply: true

Ask: Determine if Cc1cc(CC(=O)O)n(C)c1C(=O)c1ccc(Cl)cc1 shows normalized growth strictly lower than 1.
Reply: false

Ask: Determine if CC1OC(O[C@H]2/C=C/C=C/C=C/C=C/C=C/C=C/C=C/[C@H](C)[C@@H](O)[C@@H](C)[C@H](C)OC(=O)CC(O)CC(O)CCC(O)C(O)CC(O)C[C@]3(O)C[C@H](O)C(C(=O)O)C(C2)O3)C(O)[C@H](N)C1O (stereo not given in full) shows normalized growth strictly lower than 1.
Reply: true

Ask: Determine if CC(=O)Oc1ccc2c(c1)CCC1C2CC[C@]2(C)C(=O)CCC12 (stereo not given in full) shows normalized growth strictly lower than 1.
Reply: true
